Biological target: T1, Eaf3 CD (residues 1-120) W84Y (S. cerevisiae, UniProt Q12432 1-120, W84Y)
T1 construct: Eaf3 chromodomain (CD), budding yeast (S. cerevisiae), residues 1-120, W84Y; 15N-labelled for the NMR experiments; source: E. coli BL21(DE3)pLysS, purified (Ni-NTA, thrombin, Ni-NTA flow-through, Superdex75)
T1 sequence (looked up): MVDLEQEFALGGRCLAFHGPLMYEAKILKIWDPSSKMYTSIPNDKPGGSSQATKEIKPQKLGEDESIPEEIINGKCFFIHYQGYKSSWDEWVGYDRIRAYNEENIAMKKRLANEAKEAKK
Experiment: NMR titration; 0.1 mM 15N-labelled WT or mutant Eaf3 CD titrated with unlabelled histone H3 peptide up to 1:88; 10 mM potassium phosphate pH 6.8, 20 mM NaCl, 5 mM DTT, 25°C; Kd by nonlinear fit of chemical shift change
Settings: both partners purified
Where no end group is shown, it is not given here. [ ]: non-standard residue; d: D form. Lys(Me3) = C[N+](C)(C)CCCC[C@H](N)C(=O)O
REPORTED_METRIC: Kd (µM)
Numeric answer only, unit µM assumed.

I am curious: what Kd value has been reported for ART[Lys(Me3)]QTARKSTGGKAPRY [histone H3 peptide H3K4me3, titration peptide] ? 1590
